Measured values drawn from ChEMBL document CHEMBL1138351 for this set.

species: Homo sapiens; experiment: Selectivity index, ratio of IC50 for human recombinant tPA to IC50 for human uPA
Would you please tag the item fulfilled when its Ratio IC50 is 60 or above, and not fulfilled when it is below?

[[record]]
compound = "CC(=O)Nc1ccc(OP(=O)(Oc2ccc(NC(C)=O)cc2)C(Cc2ccc(NC(=N)N)cc2)NC(=O)OCc2ccccc2)cc1 (stereo not given)"
discrete_label = "fulfilled"

[[record]]
compound = "CC(=O)Nc1ccc(OP(=O)(Oc2ccc(NC(C)=O)cc2)C(Cc2ccc(NC(=N)N)cc2)NS(C)(=O)=O)cc1 (stereo not given)"
discrete_label = "fulfilled"

[[record]]
compound = "N=C(N)c1ccc(CCC(NC(=O)OCc2ccccc2)P(=O)(Oc2ccccc2)Oc2ccccc2)cc1 (stereo not given)"
discrete_label = "fulfilled"

[[record]]
compound = "N=C(N)NCCCC(NC(=O)OCc1ccccc1)P(=O)(Oc1ccccc1)Oc1ccccc1 (stereo not given)"
discrete_label = "not fulfilled"


----------
target: Urokinase-type plasminogen activator (Homo sapiens)
Everything with Kapp lower than 40000 M⁻¹ s⁻¹ is False; everything else, including exactly 40000 M⁻¹ s⁻¹, is True.

[[record]]
compound = "N=C(N)c1ccc(CC(NC(=O)OCc2ccccc2)P(=O)(Oc2ccccc2)Oc2ccccc2)cc1 (stereo not drawn)"
discrete_label = "False"

[[record]]
compound = "COC(=O)NC(Cc1ccc(NC(=N)N)cc1)P(=O)(Oc1ccccc1)Oc1ccccc1 (stereo not drawn)"
discrete_label = "True"

[[record]]
compound = "N=C(N)c1ccc(CCC(NC(=O)OCc2ccccc2)P(=O)(Oc2ccccc2)Oc2ccccc2)cc1 (stereo not drawn)"
discrete_label = "False"

[[record]]
compound = "N=C(N)c1ccc(C(NC(=O)OCc2ccccc2)P(=O)(Oc2ccccc2)Oc2ccccc2)cc1 (stereo not drawn)"
discrete_label = "False"

[[record]]
compound = "CC(C)c1cc(C(C)C)c(S(=O)(=O)NC(Cc2ccc(NC(=N)N)cc2)P(=O)(Oc2ccccc2)Oc2ccccc2)c(C(C)C)c1 (stereo not drawn)"
discrete_label = "False"

[[record]]
compound = "CC(=O)Nc1ccc(OP(=O)(Oc2ccc(NC(C)=O)cc2)C(Cc2ccc(NC(=N)N)cc2)NC(=O)OCc2ccccc2)cc1 (stereo not drawn)"
discrete_label = "True"

[[record]]
compound = "CS(=O)(=O)NC(Cc1ccc(NC(=N)N)cc1)P(=O)(Oc1ccccc1)Oc1ccccc1 (stereo not drawn)"
discrete_label = "True"


----------
biological target: UniProtKB P00742
Sequence (P00742 41-179 limits assumed): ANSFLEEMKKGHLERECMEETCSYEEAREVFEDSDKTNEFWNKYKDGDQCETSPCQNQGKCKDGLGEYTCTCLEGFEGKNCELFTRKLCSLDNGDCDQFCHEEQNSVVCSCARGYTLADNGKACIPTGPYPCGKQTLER
Sequence (P00742 235-488 limits assumed): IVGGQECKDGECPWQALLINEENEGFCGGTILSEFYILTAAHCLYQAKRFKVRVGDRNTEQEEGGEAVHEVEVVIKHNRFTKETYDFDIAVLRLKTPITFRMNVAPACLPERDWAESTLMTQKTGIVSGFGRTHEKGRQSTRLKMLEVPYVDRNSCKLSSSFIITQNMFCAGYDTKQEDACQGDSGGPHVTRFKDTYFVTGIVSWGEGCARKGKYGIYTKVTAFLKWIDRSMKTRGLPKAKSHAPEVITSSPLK
pIC50: −log10 of the molar value.
pIC50 by entry:
Parameter: pIC50

[[record]]
compound = "C[C@H](NC(=O)[C@@H](CO)NS(=O)(=O)Cc1ccccc1)C(=O)NC(Cc1ccc(NC(=N)N)cc1)P(=O)(Oc1ccccc1)Oc1ccccc1 (stereo partly drawn)"
target_or_system = "UniProtKB P00742"
parameter = "pIC50"
observed_value = 4.47

[[record]]
compound = "CS(=O)(=O)NC(Cc1ccc(NC(=N)N)cc1)P(=O)(Oc1ccccc1)Oc1ccccc1 (stereo not drawn)"
target_or_system = "UniProtKB P00742"
parameter = "pIC50"
observed_value = 3.60

[[record]]
compound = "COC(=O)NC(Cc1ccc(NC(=N)N)cc1)P(=O)(Oc1ccc(NC(C)=O)cc1)Oc1ccc(NC(C)=O)cc1 (stereo not drawn)"
target_or_system = "UniProtKB P00742"
parameter = "pIC50"
observed_value = 4.52


----------
organism: Homo sapiens; assay: Selectivity index, ratio of IC50 for human plasmin to IC50 for human uPA
Parameter: Ratio IC50

[[record]]
molecule = "CC(C)c1cc(C(C)C)c(S(=O)(=O)NC(Cc2ccc(NC(=N)N)cc2)P(=O)(Oc2ccccc2)Oc2ccccc2)c(C(C)C)c1 (stereo not given)"
parameter = "Ratio IC50"
observed_value = 500

[[record]]
molecule = "N=C(N)NCCCC(NC(=O)OCc1ccccc1)P(=O)(Oc1ccccc1)Oc1ccccc1 (stereo not given)"
parameter = "Ratio IC50"
observed_value = 35

[[record]]
molecule = "N=C(N)c1ccc(CCC(NC(=O)OCc2ccccc2)P(=O)(Oc2ccccc2)Oc2ccccc2)cc1 (stereo not given)"
parameter = "Ratio IC50"
observed_value = 7

[[record]]
molecule = "CC(=O)Nc1ccc(OP(=O)(Oc2ccc(NC(C)=O)cc2)C(Cc2ccc(NC(=N)N)cc2)NC(=O)OCc2ccccc2)cc1 (stereo not given)"
parameter = "Ratio IC50"
observed_value = 200

[[record]]
molecule = "CC(=O)Nc1ccc(OP(=O)(Oc2ccc(NC(C)=O)cc2)C(Cc2ccc(NC(=N)N)cc2)NS(C)(=O)=O)cc1 (stereo not given)"
parameter = "Ratio IC50"
observed_value = 550


----------
The following are reported pIC50 results, target or system Prothrombin (Rattus norvegicus).
pIC50: −log10 of the molar value.
Parameter: pIC50

[[record]]
molecule = "COC(=O)NC(Cc1ccc(NC(=N)N)cc1)P(=O)(Oc1ccc(NC(C)=O)cc1)Oc1ccc(NC(C)=O)cc1 (configuration not stated)"
relation_symbol = "="
observed_value = 4.35

[[record]]
molecule = "COC(=O)NC(Cc1ccc(NC(=N)N)cc1)P(=O)(Oc1ccccc1)Oc1ccccc1 (configuration not stated)"
relation_symbol = "<"
observed_value = 4.00


----------
// endpoint log10(Kapp) / system Urokinase-type plasminogen activator (Homo sapiens, UniProt P00749)
Parameter: log10(Kapp) (log10 of the value in M⁻¹ s⁻¹)

[[record]]
compound = "N=C(N)Nc1ccc(CC(NC(=O)OCc2ccccc2)P(=O)(Oc2ccccc2)Oc2ccccc2)cc1 (stereo not drawn)"
target_or_system = "Urokinase-type plasminogen activator (Homo sapiens, UniProt P00749)"
parameter = "log10(Kapp)"
observed_value = 4.62

[[record]]
compound = "N=C(N)Nc1ccc(CC(NC(=O)c2ccccc2)P(=O)(Oc2ccccc2)Oc2ccccc2)cc1 (stereo not drawn)"
target_or_system = "Urokinase-type plasminogen activator (Homo sapiens, UniProt P00749)"
parameter = "log10(Kapp)"
observed_value = 3.38

[[record]]
compound = "N=C(N)Nc1ccc(CC(NS(=O)(=O)c2cccc3ccccc23)P(=O)(Oc2ccccc2)Oc2ccccc2)cc1 (stereo not drawn)"
target_or_system = "Urokinase-type plasminogen activator (Homo sapiens, UniProt P00749)"
parameter = "log10(Kapp)"
observed_value = 3.86

[[record]]
compound = "N=C(N)NCCCC(NC(=O)OCc1ccccc1)P(=O)(Oc1ccccc1)Oc1ccccc1 (stereo not drawn)"
target_or_system = "Urokinase-type plasminogen activator (Homo sapiens, UniProt P00749)"
parameter = "log10(Kapp)"
observed_value = 2.00

[[record]]
compound = "COC(=O)NC(Cc1ccc(NC(=N)N)cc1)P(=O)(Oc1ccc(NC(C)=O)cc1)Oc1ccc(NC(C)=O)cc1 (stereo not drawn)"
target_or_system = "Urokinase-type plasminogen activator (Homo sapiens, UniProt P00749)"
parameter = "log10(Kapp)"
observed_value = 6.00

[[record]]
compound = "CC(=O)Nc1ccc(OP(=O)(Oc2ccc(NC(C)=O)cc2)C(Cc2ccc(NC(=N)N)cc2)NS(C)(=O)=O)cc1 (stereo not drawn)"
target_or_system = "Urokinase-type plasminogen activator (Homo sapiens, UniProt P00749)"
parameter = "log10(Kapp)"
observed_value = 5.32

[[record]]
compound = "N=C(N)Nc1ccc(CC(NS(=O)(=O)Cc2ccccc2)P(=O)(Oc2ccccc2)Oc2ccccc2)cc1 (stereo not drawn)"
target_or_system = "Urokinase-type plasminogen activator (Homo sapiens, UniProt P00749)"
parameter = "log10(Kapp)"
observed_value = 4.28

[[record]]
compound = "CC(=O)NC(Cc1ccc(NC(=N)N)cc1)P(=O)(Oc1ccccc1)Oc1ccccc1 (stereo not drawn)"
target_or_system = "Urokinase-type plasminogen activator (Homo sapiens, UniProt P00749)"
parameter = "log10(Kapp)"
observed_value = 6.15


----------
pIC50: −log10 of the molar value.
Urokinase-type plasminogen activator (Homo sapiens, UniProt P00749) pIC50 data
Parameter: pIC50

[[record]]
molecule = "CC(=O)NC(Cc1ccc(NC(=N)N)cc1)P(=O)(Oc1ccccc1)Oc1ccccc1 (stereo not drawn)"
target_or_system = "Urokinase-type plasminogen activator (Homo sapiens, UniProt P00749)"
parameter = "pIC50"
observed_value = 8.14

[[record]]
molecule = "C[C@H](NC(=O)[C@@H](CO)NS(=O)(=O)Cc1ccccc1)C(=O)NC(Cc1ccc(NC(=N)N)cc1)P(=O)(Oc1ccccc1)Oc1ccccc1 (stereo partly drawn)"
target_or_system = "Urokinase-type plasminogen activator (Homo sapiens, UniProt P00749)"
parameter = "pIC50"
observed_value = 8.40

[[record]]
molecule = "N=C(N)NCCCC(NC(=O)OCc1ccccc1)P(=O)(Oc1ccccc1)Oc1ccccc1 (stereo not drawn)"
target_or_system = "Urokinase-type plasminogen activator (Homo sapiens, UniProt P00749)"
parameter = "pIC50"
observed_value = 6.08


----------
biological target: Tissue-type plasminogen activator (Homo sapiens, UniProt P00750); assay: Inhibition of human recombinant tPA
Sequence (P00750 whole entry): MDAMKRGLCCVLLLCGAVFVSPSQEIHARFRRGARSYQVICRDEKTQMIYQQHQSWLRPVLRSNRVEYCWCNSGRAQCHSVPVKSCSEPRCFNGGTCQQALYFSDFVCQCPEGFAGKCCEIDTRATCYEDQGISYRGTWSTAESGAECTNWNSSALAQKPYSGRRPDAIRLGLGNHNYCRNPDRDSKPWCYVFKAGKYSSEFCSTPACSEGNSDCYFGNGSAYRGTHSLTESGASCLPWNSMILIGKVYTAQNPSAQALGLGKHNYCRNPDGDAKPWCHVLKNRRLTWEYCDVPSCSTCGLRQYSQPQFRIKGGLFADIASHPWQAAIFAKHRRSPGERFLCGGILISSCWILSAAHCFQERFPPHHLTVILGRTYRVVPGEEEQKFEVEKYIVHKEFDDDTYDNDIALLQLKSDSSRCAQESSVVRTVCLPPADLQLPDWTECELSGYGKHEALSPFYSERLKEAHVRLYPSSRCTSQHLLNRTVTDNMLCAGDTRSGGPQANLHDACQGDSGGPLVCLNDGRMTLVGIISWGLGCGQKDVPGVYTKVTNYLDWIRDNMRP
Parameter: Ki

[[record]]
smiles_input = "C[C@H](NC(=O)[C@@H](CO)NS(=O)(=O)Cc1ccccc1)C(=O)NCc1ccc(NC(=N)N)cc1"
observed_value = "> 2.5 µM"

[[record]]
smiles_input = "N=C(N)Nc1ccc(CNC(=O)OCc2ccccc2)cc1"
observed_value = "> 1000 µM"

